tested on: Cryptococcus neoformans; assay: Antifungal activity against Cryptococcus neoformans (CN-17); assay type: functional
observable: MIC

Worked set:
{"columns": ["structure.as.smiles", "MIC"],
 "data": [
  ["CC(=O)N1CCN(c2ccc(OC[C@H]3CO[C@](Cn4ccnc4)(c4ccc(Cl)cc4Cl)O3)cc2)CC1", "0.3 µg/mL"],
  ["CSc1cc(-c2ccc(F)cc2)c(C(=O)O)s1", "> 100 µg/mL"],
  ["CCOC(=O)c1sc(SC)cc1-c1ccc(C)cc1", "> 100 µg/mL"]
]}

Just so you know, measured MIC for `CSc1cc(-c2ccc(Cl)cc2)c(C(=O)O)s1` came out at > 100 µg/mL

MIC reading for `CCOC(=O)c1sc2cc(-c3cccc([N+](=O)[O-])c3)oc(=O)c2c1N` : > 100 µg/mL

Briefly, MIC measured for `CCOC(=O)c1sc(SC)c(C#N)c1N` : > 100 µg/mL

Value of measured MIC for the entry `CCOC(=O)c1sc2cc(-c3ccc(Cl)cc3)oc(=O)c2c1N` : > 100 µg/mL

Memo: `CCOC(=O)c1sc2cc(-c3ccc(F)cc3)oc(=O)c2c1N` , reported MIC: > 100 µg/mL

Measured MIC of `CCOC(=O)c1sc(SC)cc1-c1ccc(Br)cc1` : > 100 µg/mL

----------
Consider the following compounds and their measured MIC readings.
system: Aspergillus fumigatus; assay: Antifungal activity against Aspergillus fumigatus (AF-27); type: functional

Below, each entry is followed by its recorded MIC result.
{"columns": ["structure.as.smiles", "observable", "experimental.result"],
 "data": [
  ["CCOC(=O)c1sc2cc(-c3cccnc3)oc(=O)c2c1N", "MIC", "> 100 µg/mL"],
  ["CC(=O)N1CCN(c2ccc(OC[C@H]3CO[C@](Cn4ccnc4)(c4ccc(Cl)cc4Cl)O3)cc2)CC1", "MIC", "0.7 µg/mL"],
  ["CCOC(=O)c1sc(SC)c(C(=O)OCC)c1O", "MIC", "> 100 µg/mL"],
  ["CCOC(=O)c1sc(SC)cc1-c1ccccc1", "MIC", "> 100 µg/mL"],
  ["CSc1cc(-c2ccc(Br)cc2)c(C(=O)O)s1", "MIC", "> 100 µg/mL"],
  ["CCOC(=O)c1sc2cc(-c3ccc(F)cc3)oc(=O)c2c1N", "MIC", "> 100 µg/mL"]
]}

For `CCOC(=O)c1sc2cc(-c3ccc([N+](=O)[O-])cc3)oc(=O)c2c1N` the compound record lists MIC as > 100 µg/mL

The value of MIC measured for the compound `CSc1cc(-c2ccc(C)cc2)c(C(=O)O)s1` turned out to be > 100 µg/mL

compound `CCOC(=O)c1sc2cc(-c3ccc(OC)cc3)oc(=O)c2c1N` , MIC observed: > 100 µg/mL

Input `CSc1cc(-c2cccnc2)c(C(=O)O)s1` . Output MIC: > 100 µg/mL

get_value(item= `CCOC(=O)c1sc(SC)cc1-c1cccnc1` , readout=MIC) returns 50 µg/mL

----------
Attribute: MIC
tested on: Aspergillus fumigatus; experiment: Antifungal activity against Aspergillus fumigatus (AF-27); assay type: functional

# annotated cases, reported MIC shown
{"columns": ["structure.as.smiles", "MIC"],
 "data": [
  ["CCOC(=O)c1sc2cc(-c3cccc([N+](=O)[O-])c3)oc(=O)c2c1N", "> 100 µg/mL"],
  ["CSc1cc(-c2ccc(F)cc2)c(C(=O)O)s1", "> 100 µg/mL"],
  ["CCOC(=O)c1sc2cc(-c3cc(F)c(Cl)cc3Cl)oc(=O)c2c1N", "> 100 µg/mL"],
  ["CCOC(=O)c1sc(SC)cc1-c1ccc(Br)cc1", "> 100 µg/mL"]
]}

Measured MIC of `CCOC(=O)c1sc2cc(-c3ccc(Br)cc3)oc(=O)c2c1N` : > 100 µg/mL

The molecule listed as `CCOC(=O)c1sc2cc(-c3ccc(Cl)cc3)oc(=O)c2c1N` has a reported MIC of > 100 µg/mL

response.value for `CSc1cc(-c2ccc(Cl)cc2)c(C(=O)O)s1` (field: MIC) = > 100 µg/mL

Field MIC (entry `CCOC(=O)c1sc(SC)cc1-c1ccc(F)cc1` ) reads > 100 µg/mL

The recorded MIC for `CCOC(=O)c1sc(SC)cc1-c1ccc(C)cc1` is > 100 µg/mL

Every entry's value here was drawn from ChEMBL document CHEMBL1129814.
